Value source: patent US11491165B2

Property: melting point; scope: individual compounds

The following compounds have reported results that may help.
{"COMPOUND": "CCCCCCOc1ccc(C(=O)N2Cc3cnn(C)c3Nc3ccccc32)cc1", "melting point": "204 to 206 °C"}
{"COMPOUND": "COc1ccc(C(=O)N2Cc3cnn(C)c3Nc3ccccc32)cc1", "melting point": "296 to 298 °C (dec.)"}

Return reported melting point; argument: Cn1ncc2c1Nc1ccccc1N(C(=O)C13CC4CC(F)(CC(F)(C4)C1)C3)C2 [WJ0807dF] 262 to 264 °C (dec.)

Return reported melting point; argument: Cn1ncc2c1Nc1ccccc1N(C(=O)C13C4C5C6C4C1C6C53)C2 (stereo not shown) 194 to 203 °C

----------
VALUE_KIND: melting point

The following molecules have reported results that may help.
{"MOLECULE": "Cn1ncc2c1Nc1ccccc1N(C(=O)c1ccc(Cl)cc1)C2 [WJ0755]", "melting point": "243 to 246 °C"}
{"MOLECULE": "Cn1ncc2c1Nc1ccccc1N(C(=O)c1cc(O)cc(O)c1)C2 [WJ0623]", "melting point": "> 300 °C"}
{"MOLECULE": "Cn1ncc2c1Nc1ccccc1N(C(=O)c1ccc(O)cc1)C2 [TAR-B049]", "melting point": "> 300 °C"}
{"MOLECULE": "Cn1ncc2c1Nc1ccccc1N(C(=O)c1cc(F)cc(F)c1)C2 [WJ0681]", "melting point": "290 to 292 °C (dec.)"}
{"MOLECULE": "Cn1ncc2c1Nc1ccccc1N(C(=O)C13CC4CC(CC(F)(C4)C1)C3)C2 [WJ0807mF]", "melting point": "266 to 268 °C (dec.)"}

# input for lookup
Return reported melting point; argument: Cn1ncc2c1Nc1ccccc1N(C(=O)c1ccc(Br)cc1)C2 [WJ0820] 249 to 251 °C

----------
Biological target: vasopressin 1a receptor (V1aR) (Homo sapiens)
Sequence (P37288 whole entry): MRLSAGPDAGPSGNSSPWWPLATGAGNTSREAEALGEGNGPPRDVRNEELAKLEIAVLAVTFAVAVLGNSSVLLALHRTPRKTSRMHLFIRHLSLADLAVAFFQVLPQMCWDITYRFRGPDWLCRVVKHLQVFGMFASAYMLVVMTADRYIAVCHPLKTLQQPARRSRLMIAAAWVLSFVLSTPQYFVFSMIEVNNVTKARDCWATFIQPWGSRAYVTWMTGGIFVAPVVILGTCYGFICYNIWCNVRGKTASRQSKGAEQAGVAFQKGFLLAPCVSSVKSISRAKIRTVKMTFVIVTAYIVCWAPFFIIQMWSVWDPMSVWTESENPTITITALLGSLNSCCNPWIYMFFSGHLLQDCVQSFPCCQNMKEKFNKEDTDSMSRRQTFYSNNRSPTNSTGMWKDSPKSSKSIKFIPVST
Test: IP1 accumulation assay, V1aR-expressing HEK-293 cells (agonist and antagonist assessment)
Conditions: antagonist assessment vs AVP 25 nM (~EC70), IP1
pIC50: −log10 of the molar value.
VALUE_KIND: pIC50

The following compounds have reported results that may help.
{"MOL_SMILES": "Cn1ncc2c1Nc1ccccc1N(C(=O)c1ccc3c(c1)OCO3)C2", "pIC50": 5.82}
{"MOL_SMILES": "Cc1cc(C(=O)N2Cc3cnn(C)c3Nc3ccccc32)ccc1CN", "pIC50": "< 5.00"}
{"MOL_SMILES": "Cn1ncc2c1Nc1ccccc1N(C(=O)C1CC1)C2", "pIC50": "< 5.00"}
{"MOL_SMILES": "Cc1ccc(CN2Cc3cnn(C)c3Nc3ccccc32)cc1C", "pIC50": "< 5.00"}
{"MOL_SMILES": "Cn1ncc2c1Nc1ccccc1N(C(=O)c1cccc(F)c1)C2", "pIC50": 5.66}

# input for lookup
Return reported pIC50; argument: Cc1ccc(S(=O)(=O)N2Cc3cnn(C)c3Nc3ccccc32)cc1 < 5.00

----------
Property: pEC50; scope: individual molecules
Target: oxytocin receptor (OXTR), hOTR (Homo sapiens, UniProt P30559)
Sequence (P30559 1-389): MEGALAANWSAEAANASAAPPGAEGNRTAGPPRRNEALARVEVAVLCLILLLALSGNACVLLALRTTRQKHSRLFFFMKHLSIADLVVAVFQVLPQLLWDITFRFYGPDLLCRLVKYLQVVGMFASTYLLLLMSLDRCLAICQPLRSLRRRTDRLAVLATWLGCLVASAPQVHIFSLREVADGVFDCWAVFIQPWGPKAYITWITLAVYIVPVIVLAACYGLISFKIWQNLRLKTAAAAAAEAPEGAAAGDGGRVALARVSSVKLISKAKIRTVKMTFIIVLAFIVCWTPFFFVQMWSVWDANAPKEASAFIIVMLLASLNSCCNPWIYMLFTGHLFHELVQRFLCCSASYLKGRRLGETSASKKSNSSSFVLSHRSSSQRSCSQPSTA
Experiment: IP1 accumulation assay, OTR-expressing HEK-293 cells (agonist and antagonist assessment)
Settings: agonist assessment, IP1, 1 h
Reminder that pEC50 means the negative base-10 logarithm of the concentration expressed in mol/L.

The following molecules have reported results that may help.
{"MOLECULE": "Cc1cc(C(=O)N2Cc3cnn(C)c3Nc3ccccc32)ccc1CN", "pEC50": 5.04}
{"MOLECULE": "Cn1ncc2c1Nc1ccccc1N(C(=O)c1ccc(Cl)c(Cl)c1)C2", "pEC50": 6.36}

Return reported pEC50; argument: Cn1ncc2c1Nc1ccccc1N(C(=O)C1CCCCC1)C2 6.32

Return reported pEC50; argument: Cn1ncc2c1Nc1ccccc1N(C(=O)c1cccc(F)c1)C2 6.39

Return reported pEC50; argument: Cc1ccc(C(=O)N2Cc3cnn(C)c3Nc3ccccc32)cc1C 6.96

Return reported pEC50; argument: Cc1ccc(C(=O)N2Cc3cnn(C)c3Nc3ccccc32)cc1F 7.02

Return reported pEC50; argument: COc1cccc(C(=O)N2Cc3cnn(C)c3Nc3ccccc32)c1 6.47

Return reported pEC50; argument: COc1ccc(C(=O)N2Cc3cnn(C)c3Nc3ccccc32)cc1 6.71

Return reported pEC50; argument: Cn1ncc2c1Nc1ccccc1N(C(=O)c1ccc(C(F)(F)F)cc1)C2 6.75

Return reported pEC50; argument: Cn1ncc2c1Nc1ccccc1N(C(=O)c1cc(F)cc(F)c1)C2 6.28

Return reported pEC50; argument: CCc1ccc(C(=O)N2Cc3cnn(C)c3Nc3ccccc32)cc1 7.39

Return reported pEC50; argument: Cn1ncc2c1Nc1ccccc1N(C(=O)C13CC4CC(CC(F)(C4)C1)C3)C2 [WJ0807mF] 5.62
